All figures here come from ChEMBL document CHEMBL4266040.

SYSTEM_NAME: Lysine-specific demethylase 5A (Homo sapiens)
TEST_NAME: Irreversible inhibition of 0.4 uM KDM5A ARID/PhD1 domain deletion mutant (1 to 739 residues) (unknown origin) using 100 uM alpha-KG by succinate-glo demethylase assay
METRIC: IC50 (µM)
One number for each entry, in µM.

Notebook: pull reported IC50 for Lysine-specific demethylase 5A (Homo sapiens), entry CN(C)C/C=C/C(=O)Nc1cccc(C(OCCN2CCCCC2)c2cc3nccc(C(=O)O)c3s2)c1 (stereo unspecified)
0.06

###

SYSTEM_NAME: Lysine-specific demethylase 5A (Homo sapiens, UniProt P29375)
TEST_NAME: Irreversible inhibition of KDM5A ARID/PhD1 domain deletion mutant (1 to 739 residues) (unknown origin) using 1000 uM alpha-KG by succinate-glo demethylase assay
METRIC: pIC50
Numbers only, as −log10 of the molar value.

Which pIC50 is reported for this molecule? CN(C)C/C=C/C(=O)Nc1cccc(C(OCCN2CCCCC2)c2cc3nccc(C(=O)O)c3s2)c1 (configuration not stated)
6.74

###

SYSTEM_NAME: Lysine-specific demethylase 5A (Homo sapiens)
TEST_NAME: Irreversible inhibition of KDM5A ARID/PhD1 domain deletion mutant (1 to 739 residues) (unknown origin) using alpha-KG by succinate-glo demethylase assay
METRIC: pIC50
Give bare numbers, as −log10 of the molar value.

MOLECULE	pIC50
Nc1cccc(C(OCCN2CCCCC2)c2cc3nccc(C(=O)O)c3s2)c1 (configuration not stated)	5.31

Now for another entry.
Which pIC50 is reported for this molecule? CN(C)C/C=C/C(=O)Nc1cccc(C(OCCN2CCCCC2)c2cc3nccc(C(=O)O)c3s2)c1 (configuration not stated)
5.91

###

SYSTEM_NAME: Lysine-specific demethylase 5A (Homo sapiens)
TEST_NAME: Irreversible inhibition of KDM5A ARID/PhD1 domain deletion mutant (1 to 739 residues) (unknown origin)
METRIC: Ki (nM)
Give bare numbers, in nM.

Which Ki is reported for this compound? CN(C)C/C=C/C(=O)Nc1cccc(C(OCCN2CCCCC2)c2cc3nccc(C(=O)O)c3s2)c1 (stereo unspecified)
410

###

TEST_NAME: Effective permeability of the compound at pH 7.4 by PAMPA
Format: ADME
ASSAY_CONTEXT: read-out: Peff
METRIC: Papp (×10⁻⁶ cm/s)
One number for each entry, in ×10⁻⁶ cm/s.

COMPOUND	Papp (×10⁻⁶ cm/s)
Nc1cccc(C(OCCN2CCCCC2)c2cc3nccc(C(=O)O)c3s2)c1 (stereo not drawn)	52.7

Now for another entry.
Which Papp is reported for this compound? CC(C)OC(=O)c1ccnc2cc(C(OCCN3CCCCC3)c3cccc(NC(=O)/C=C/CN(C)C)c3)sc12 (stereo not drawn)
71.4

###

Please go through the items and note down their Kd.
SYSTEM_NAME: Lysine-specific demethylase 5A (Homo sapiens)
TEST_NAME: Binding affinity to KDM5A ARID/PhD1 domain deletion mutant (1 to 588 residues) (unknown origin) by ITC assay

COMPOUND	SYSTEM_NAME	Kd
C=CS(=O)(=O)N1CCCN(c2cc(NCCC(=O)O)nc(-c3ccccn3)n2)CC1	Lysine-specific demethylase 5A (Homo sapiens)	9 µM
O=C(O)CCNc1cc(N2CCc3ccccc3CC2)nc(-c2ccccn2)n1	Lysine-specific demethylase 5A (Homo sapiens)	12 µM
C=CC(=O)N1CCCN(c2cc(NCCC(=O)O)nc(-c3ccccn3)n2)CC1	Lysine-specific demethylase 5A (Homo sapiens)	6 µM
CN1CCCC1CCOC(c1cc2nccc(C(=O)O)c2s1)c1ccccc1Cl (stereo not given)	Lysine-specific demethylase 5A (Homo sapiens)	0.26 µM

Which Kd is reported for this compound? CN1CCCC1CCOC(c1cc2nccc(C(=O)O)c2[nH]1)c1ccccc1Cl (stereo not given)
0.15 µM

###

SYSTEM_NAME: UniProtKB P29375
TEST_NAME: Irreversible inhibition of 0.8 uM KDM5A ARID/PhD1 domain deletion mutant (1 to 739 residues) (unknown origin) using 100 uM alpha-KG by succinate-glo demethylase assay
METRIC: IC50

Which IC50 is reported for this molecule? CN(C)C/C=C/C(=O)Nc1cccc(C(OCCN2CCCCC2)c2cc3nccc(C(=O)O)c3s2)c1 (stereo unspecified)
180 nM

###

SYSTEM_NAME: Lysine-specific demethylase 4A (Homo sapiens, UniProt O75164)
Sequence (O75164 whole entry, the tested form may be a part): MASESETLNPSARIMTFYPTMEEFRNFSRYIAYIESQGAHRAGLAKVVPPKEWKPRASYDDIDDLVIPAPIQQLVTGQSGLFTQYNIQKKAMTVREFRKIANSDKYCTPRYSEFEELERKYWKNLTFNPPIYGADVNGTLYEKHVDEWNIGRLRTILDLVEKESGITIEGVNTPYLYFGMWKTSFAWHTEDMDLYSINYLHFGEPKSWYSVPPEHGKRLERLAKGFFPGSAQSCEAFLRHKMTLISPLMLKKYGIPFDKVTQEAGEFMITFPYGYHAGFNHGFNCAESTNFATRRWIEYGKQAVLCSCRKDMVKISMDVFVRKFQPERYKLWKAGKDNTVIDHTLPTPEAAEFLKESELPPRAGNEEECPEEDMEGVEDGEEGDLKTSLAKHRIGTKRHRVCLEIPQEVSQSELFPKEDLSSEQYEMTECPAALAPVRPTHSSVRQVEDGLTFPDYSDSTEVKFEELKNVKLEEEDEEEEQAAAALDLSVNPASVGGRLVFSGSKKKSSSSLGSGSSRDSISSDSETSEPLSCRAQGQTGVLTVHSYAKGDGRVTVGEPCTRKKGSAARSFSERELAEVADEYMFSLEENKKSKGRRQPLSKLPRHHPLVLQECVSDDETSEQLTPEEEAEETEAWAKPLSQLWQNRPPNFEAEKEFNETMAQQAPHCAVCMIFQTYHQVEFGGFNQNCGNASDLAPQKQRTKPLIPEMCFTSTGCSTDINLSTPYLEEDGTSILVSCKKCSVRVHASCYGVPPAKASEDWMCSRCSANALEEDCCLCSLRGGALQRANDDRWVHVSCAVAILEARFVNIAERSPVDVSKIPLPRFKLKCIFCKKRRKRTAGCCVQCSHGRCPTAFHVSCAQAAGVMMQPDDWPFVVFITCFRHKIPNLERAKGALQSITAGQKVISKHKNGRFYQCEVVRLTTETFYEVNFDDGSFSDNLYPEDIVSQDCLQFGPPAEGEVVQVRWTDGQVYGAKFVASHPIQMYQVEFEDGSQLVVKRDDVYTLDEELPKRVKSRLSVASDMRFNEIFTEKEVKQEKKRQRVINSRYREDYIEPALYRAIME
TEST_NAME: Inhibition of KDM4A (1 to 350 residues) (unknown origin) using H3 ( 1 to 15 residues) K9me3 as substrate preincubated for 15 min followed by substrate addition measured after 15 mins by FDH-coupled demethylase assay
METRIC: IC50 (µM)
Give bare numbers, in µM.

The examples below pair each entry with its known result.
C=CS(=O)(=O)N1CCCN(c2cc(NCCC(=O)O)nc(-c3ccccn3)n2)CC1 290
C=CC(=O)N1CCCN(c2cc(NCCC(=O)O)nc(-c3ccccn3)n2)CC1 230

Which IC50 is reported for this compound? `O=C(O)CCNc1cc(N2CCc3ccccc3CC2)nc(-c2ccccn2)n1`
400

###

Please go through the items and note down their IC50.
SYSTEM_NAME: Lysine-specific demethylase 5A (Homo sapiens, UniProt P29375)
TEST_NAME: Irreversible inhibition of KDM5A ARID/PhD1 domain deletion mutant (1 to 739 residues) (unknown origin) using 10 uM alpha-KG by succinate-glo demethylase assay
Numbers only, in nM.

Go through the items and report each one's IC50.
1. CN(C)C/C=C/C(=O)Nc1cccc(C(OCCN2CCCCC2)c2cc3nccc(C(=O)O)c3s2)c1 (configuration not stated)
2. Nc1cccc(C(OCCN2CCCCC2)c2cc3nccc(C(=O)O)c3s2)c1 (configuration not stated)

1: 100; 2: 700

###

SYSTEM_NAME: Lysine-specific demethylase 5A (Homo sapiens)
TEST_NAME: Irreversible inhibition of KDM5A ARID/PhD1 domain deletion mutant (1 to 739 residues) (unknown origin) using 100 uM alpha-KG by succinate-glo demethylase assay
Please go through the items and note down their IC50.
Answers are plain numbers, in µM.

Go through the items and report each one's IC50.
1. Nc1cccc(C(OCCN2CCCCC2)c2cc3nccc(C(=O)O)c3s2)c1 (configuration not stated)
2. CN(C)C/C=C/C(=O)Nc1cccc(C(OCCN2CCCCC2)c2cc3nccc(C(=O)O)c3s2)c1 (configuration not stated)

5.4
0.11

###

Please go through the items and note down their remaining at 24 h, 10 µM.
TEST_NAME: Metabolic stability in human BT474 cell culture media assessed as parent compound remaining at 10 uM after 24 hrs by LC-MS/MS analysis
Format: physicochemical
ASSAY_CONTEXT: read-out: Stability
Answers are plain numbers, in %.

The examples below pair each entry with its known result.
COMPOUND	ENDPOINT_UNIT	remaining at 24 h, 10 µM
CC(C)OC(=O)c1ccnc2cc(C(OCCN3CCCCC3)c3cccc(NC(=O)/C=C/CN(C)C)c3)sc12 (centres undefined)	%	80
Nc1cccc(C(OCCN2CCCCC2)c2cc3nccc(C(=O)O)c3s2)c1 (centres undefined)	%	93

Go through the items and report each one's remaining at 24 h, 10 µM.
1. CN(C)C/C=C/C(=O)Nc1cccc(C(OCCN2CCCCC2)c2cc3nccc(C(=O)O)c3s2)c1 (centres undefined)
2. CC(C)OC(=O)c1ccnc2cc(C(OCCN3CCCCC3)c3cccc(N)c3)sc12 (centres undefined)

1: 60; 2: 75

###

SYSTEM_NAME: Lysine-specific demethylase 5A (Homo sapiens, UniProt P29375)
TEST_NAME: Irreversible inhibition of 1.6 uM KDM5A ARID/PhD1 domain deletion mutant (1 to 739 residues) (unknown origin) using 100 uM alpha-KG by succinate-glo demethylase assay
METRIC: pIC50
Give bare numbers, as −log10 of the molar value.

Which pIC50 is reported for this compound? CN(C)C/C=C/C(=O)Nc1cccc(C(OCCN2CCCCC2)c2cc3nccc(C(=O)O)c3s2)c1 (stereo unspecified)
6.44

###

Please go through the items and note down their IC50.
SYSTEM_NAME: Lysine-specific demethylase 5A (Homo sapiens, UniProt P29375)
TEST_NAME: Irreversible inhibition of KDM5A ARID/PhD1 domain deletion mutant (1 to 739 residues) (unknown origin) using alpha-KG measured immediately by succinate-glo demethylase assay
Param answer (str): number followed by unit.

COMPOUND	IC50
Nc1cccc(C(OCCN2CCCCC2)c2cc3nccc(C(=O)O)c3s2)c1 (configuration not stated)	5500 nM

Now for another entry.
Which IC50 is reported for this compound? CN(C)C/C=C/C(=O)Nc1cccc(C(OCCN2CCCCC2)c2cc3nccc(C(=O)O)c3s2)c1 (configuration not stated)
110 nM
